TESTED ON: T1, LILRB4抗原 (人LILRB4蛋白胞外段) (human, UniProt Q8NHJ6 22-259)
T1 construct: extracellular domain; also called 白细胞免疫球蛋白样受体亚家族B成员4
ASSAY TEXT: ELISA, coated LILRB4, anti-human IgG-HRP
Let's look at some binders and their measured EC50.
Respond numerically; units are µg/mL and should not be typed.

>  <BINDER>
人源化抗体HA-Ⅲ (human IgG1, Ck) (antibody, V domains shown, also called HA-III) VH: EVQLVESGGGLVKPGGSLRLSCAASGFTFSSYTMSWVRQAPGKGLEWVATISSGGTYTYYPDSVKGRFTISRDNAKNSLYLQMNSLRAEDTAVYYCTRDGYDGFDYWGQGTTVTVSS VL: DIVMTQTPLSLSVTPGQPASISCRSSQSLAHSNGNTYLHWYLQKPGQSPKLLIYKVSNRFSGVPDRFSGSGSGTDFTLKISRVEAEDVGVYFCSQSTHVPTFGGGTKVEIKR

>  <RECORDED VALUE>
0.014

$$$$
>  <BINDER>
人源化抗体HA-Ⅰ (human IgG1, Ck) (antibody, V domains shown, also called HA-I) VH: EVQLVESGGGLVKPGGSLRLSCAASGFTFSSYTMSWVRQAPGKGLEWVSTISSGGTYTYYPDSVKGRFTISRDNAKNSLYLQMNSLRAEDTAVYYCARDGYDGFDYWGQGTTVTVSS VL: DIVMTQTPLSLSVTPGQPASISCRSSQSLAHSNGNTYLHWYLQKPGQSPQLLIYKVSNRFSGVPDRFSGSGSGTDFTLKISRVEAEDVGVYYCSQSTHVPTFGGGTKVEIKR

>  <RECORDED VALUE>
0.0174

$$$$
>  <BINDER>
人源化抗体HB-Ⅰ (human IgG1, Ck) (antibody, V domains shown, also called HB-I) VH: QVQLVQSGAEVKKPGASVKVSCKASGYTFTNYWMHWVRQAPGQGLEWIGEINPSNGRTNYNEKFKTRATLTVDTSTSTAYMELSSLRSEDTAVYYCARWGQLGLREGYYAVDYWGQGTLVTVSS VL: DIQMTQSPSSLSASVGDRVTITCRASQDISNYLNWYQQKPGKAPKLLIYYTSRLHSGVPSRFSGSGSGTDYTFTISSLQPEDIATYYCQQGNTLPPTFGGGTKVEIKR

>  <RECORDED VALUE>
0.343

$$$$

Consider the additional binder presented here.
Query string: Write down EC50 measured for item 人源化抗体HA-Ⅱ (human IgG1, Ck) (antibody, V domains shown, also called HA-II) VH: EVQLVESGGGLVKPGGSLRLSCAASGFTFSSYTMSWVRQAPGKGLEWVATISSGGTYTYYPDSVKGRFTISRDNAKNSLYLQMNSLRAEDTAVYYCARDGYDGFDYWGQGTTVTVSS VL: DIVMTQTPLSLSVTPGQPASISCRSSQSLAHSNGNTYLHWYLQKPGQSPQLLIYKVSNRFSGVPDRFSGSGSGTDFTLKISRVEAEDVGVYFCSQSTHVPTFGGGTKVEIKR
Result string: 0.0154
